The values you see were collected from patent US20030065176A1.

- SYSTEM_UNDER_TEST: UniProt:P00734
- ASSAY_NOTES: Thrombin inhibition assay (selectivity against thrombin)
- Type: biochemical
- EXPERIMENTAL_PARAMETERS: A3: bicyclic scaffold; ratio of Ki values
# Selectivity (thrombin/FXa) per record follows
MEASURED_QUANTITY: Selectivity (thrombin/FXa)

• N=C(N)c1cccc(-c2ccccc2NS(=O)(=O)Cc2ccccc2)c1.O=C(O)C(F)(F)F [Compound No. A3-21] = 0.73
• C[n+]1cccc(-c2ccc(NC(=O)C3=C(c4cccc(C(=N)N)c4)CCC3)cc2)c1.O=C([O-])C(F)(F)F [Compound No. A3-26] = 670
• N=C(N)c1ccc(-c2ccccc2NC(=O)Nc2cccc(C(=N)N)c2)cc1.O=C(O)C(F)(F)F.O=C(O)C(F)(F)F [Compound No. A3-8] = 1.6
• N=C(N)c1ccc(NC(=O)Nc2ccccc2-c2ccc(C(=N)N)cc2)cc1.O=C(O)C(F)(F)F.O=C(O)C(F)(F)F [Compound No. A3-9] = 0.04
• N=C(N)c1ccc(NC(=O)Nc2ccccc2-c2cccc(C(=N)N)c2)cc1.O=C(O)C(F)(F)F.O=C(O)C(F)(F)F [Compound No. A3-10] = 0.82
• N=C(N)c1cccc(NC(=O)Nc2ccccc2-c2cccc(C(=N)N)c2)c1.O=C(O)C(F)(F)F.O=C(O)C(F)(F)F [Compound No. A3-11] = 6.4

---

- SYSTEM_UNDER_TEST: human thrombin (Homo sapiens)
- ASSAY_NOTES: Thrombin inhibition assay (selectivity against thrombin)
- Type: biochemical
- EXPERIMENTAL_PARAMETERS: A2: pyrrole scaffold; ratio of Ki values
Where a name gives a salt, the structure may show the parent alone.
Kind request: treat 3 as inclusive, so Selectivity (thrombin/FXa) at 3 or higher is satisfied, anything lower is not satisfied.

- CCOC(=O)c1cn(Cc2cccc(C(=N)N)c2)cc1-c1cccc(-c2ccccc2)c1.O=C(O)C(F)(F)F [Compound No. A2-51]: not satisfied
- CCOC(=O)c1cn(Cc2ccc(C(=N)N)cc2)cc1Cc1ccc(C(=N)N)cc1.O=C(O)C(F)(F)F.O=C(O)C(F)(F)F [Compound No. A2-42]: satisfied
- CCOC(=O)c1cn(Cc2ccc(-c3ccccc3)cc2)cc1Cc1cccc(C(=N)N)c1.O=C(O)C(F)(F)F [Compound No. A2-19]: not satisfied
- CCOC(=O)c1cn(Cc2ccccc2)cc1Cc1ccc(C(=N)N)cc1.O=C(O)C(F)(F)F [Compound No. A2-1]: not satisfied
- N=C(N)c1ccc(Cn2cc(Cc3cccc(C(=N)N)c3)c(C(=O)N3CCOCC3)c2)cc1 [Compound No. A2-40, bis trifluoroacetic acid salt]: satisfied
- CCOC(=O)c1cn(Cc2cccc(C(=N)N)c2)cc1-c1ccc(-c2ccccc2)cc1.O=C(O)C(F)(F)F [Compound No. A2-52]: not satisfied
